Reference for the values: patent US20250034594A1

System: gene editing with dCas9
testDetails: Screen of 322 new SSAP proteins, gene editing activity with dCas9 (Table 5)
Assay type: cell-based
conditionNotes: normalized
Text: 322 new SSAP proteins were identified from sequence data, synthesized, and screened for activity with Cas9 and dCas9. Gene editing activities are shown below in Table 5, followed by amino acid sequences of the proteins.
Would you kindly list dCas9 with SSAP activity (normalized) for each of these molecules?
Give bare numbers.

Reference set (3 entries):
molecule="SSAP_212: SEQ ID NO: 381; Streptomyces sp. NRRL S-1824 (protein, listed as Streptomyces sp.) SEISNAIATRDQGPAAQIEAYRDEYAALVPSHINVDQWVRLAAGAIRGNEDLMEAARNDIGVFLRELKTAARLGLEPGTEQFYLTARKSKAHGYALIIKGIVGYQGIVELIYRAGAVSSVIVEAVRANDTFSYVPGRDDRPIHEIDWFGGDRGPLVGVYAYAVMKDGAVSKVVVMNHKRVMEIKARSDSKNSQYSPWNTDEESMWLKSAIRQLAKWVPTSAEYKSEQLRAHAEAIGELASVASAPLPPQPSVLDDVDPDDEGPIEGELVD" measuredparameter="dCas9 with SSAP activity (normalized)" experimentalresult=−1.182
molecule="SSAP_275: SEQ ID NO: 444; Paenibacillus pinihumi (protein, listed as Paenibacillus pinihumi) ADANKLLVINEKLIKLIESKQDAMPKSFNKTRFIQNCMAVLQDTDEIDKCDATSVARTLLKGAFLGLDFMNKECYPIIYGGKCTFQTDYKGEIKLAQKYSVRPVLNIYAELVREGDFFLKEVKDGQRTIQHKPPEGFNDGKVIGAFAIVLYKDGGMDCESMSVAEIETTRKNYSKQANGPSWTKSPGEMQKKTVLRRLCKTIQLDFDTIEAKEAFEDGGDFDFKQDPKPQQQSPFDKNATVVDAEYEEVEEEDQSESAT" measuredparameter="dCas9 with SSAP activity (normalized)" experimentalresult=−0.870
molecule="SSAP_241: SEQ ID NO: 410; Antribacter gilvus (protein, listed as Antribacter gilvus) SADVVIRQHATELTSVLPSHLAEKGDGWLNAAVAAVRKDRNLWNAANSDPGAVMNALAEAARLGLQPGSKEYYLTVRGGKVLGIVGYQGEIELMYRAGAVSSVIVEPVFERDGFEYTPGVDDRPKHRIDWDADDRGPIRLAYAYAVMKDGAVSKVVVVNKTRIRRAKDASATAGKSHSPWTSDEVAMWMKTAAHDLAKWVPTSAEYIREQLRAVKEVEAEPARASDPRPEPVHIVEAQILDEDPFPNAPEDGAA" measuredparameter="dCas9 with SSAP activity (normalized)" experimentalresult=−2.720

For reference, reported dCas9 with SSAP activity (normalized) for SSAP_78: SEQ ID NO: 247 (protein) RTDGTKEAGAAATAPTEGKAPAKAHKPADTIGAMIEKLKPQIERALPKHVTPDRMARMALTAIRNNPKLGQAEAVSLMGSIIQASQLGLEPNTPLGQCYIIPYNSKNGMQAQFQMGYKGIVDLAHRSGQYRQLTAHPVDEADEFRYSYGLNPDLVHVPAEKPSGKITHYYAVYHLTNGGFDFRVWSREKVEAHAKQYSKSFSSGPWQTNFDQMACKTVMIDLLRYAPKSVEIAKATSADNRTHTINPEDPDLNIDTIDGDFELEGEER stands at −2.216
